# target.desc: adenosine kinase
# run.description: adenosine kinase (AK) inhibition
# conditions: 0.5 μM [U-14C] adenosine, pH 7.0, 20 minutes
Structures can show the parent of a compound that is named as a salt.
measurement.kind: IC50 (nM)
Answers are plain numbers, in nM.

Examples with answers:
molecule: O[C@@H]1[C@H](O)CO[C@H]1n1cc(-c2ccccc2)c2c(Nc3ccc(CCN4CCNCC4)cc3)ncnc21 [#43, trihydrochloride salt]
measurement.kind: IC50
reported.result: 3.5
//
molecule: O[C@@H]1[C@H](O)CO[C@H]1n1cc(-c2ccccc2)c2c(Nc3ccc(F)cc3)ncnc21
measurement.kind: IC50
reported.result: 28
//
molecule: OCC1(CO)O[C@@H](n2cc(-c3ccccc3)c3c(Nc4ccccc4)ncnc32)[C@H](O)[C@@H]1O
measurement.kind: IC50
reported.result: 1.2

Then there is this molecule:
Item COC[C@@]1(CO)O[C@@H](n2cc(-c3ccccc3)c3c(Nc4ccc(F)cc4)ncnc32)[C@H](O)[C@@H]1O with adenosine kinase - IC50? 24
